Provide the recorded growth for the entries that follow.
Test system: NCI-H460 lung
EXPERIMENT_DESCRIPTION: NCI-60 one-dose screen, 48 h (100 = growth as untreated, 0 = no growth, -100 = all killed)
APPLIED_CONDITIONS: 10 µM unless noted
Compounds without any hit were thinned out: in the full panel of roughly 83,000, 20% have a hit. Activity calls are given as the source filed them. How the source made its calls: active means growth percent below 10; inactive means the rest.

CCCCCCCCOc1ccc(/C=N/Nc2cc(C)nc3ccc(Cl)cc23)cc1	-63.4% (active)
COc1ccc2nc(N=Nc3c(O)ccc4ccccc34)sc2c1	6.32% (active)

For every item in the list below, what is its measured growth?
1. CCCC1C(C(=O)OCC)=C(N)Oc2cc(O)ccc21 (stereo not given)
2. CCN(CC)CCCC(C)Nc1c2c(nc3ccc(OC)cc13)CCCC2 (stereo not given)
3. CCOC(=O)c1ccc(Nc2ccnc(SCC(=O)c3ccc(C#N)cc3)n2)cc1
4. Nc1ncc(C#Cc2cncc(NC(=O)c3cccc(C(F)(F)F)c3)c2)c2cccnc12
5. CN(C)C(=O)c1cc2cnc(Nc3ccc(-c4csc5c(=O)cc(N6CCOCC6)oc45)cc3)nc2n1C1CCCC1
6. O=C(CSc1nc2sc3c(c2c(=O)n1Cc1ccccc1)CCCC3)N1CCN(c2ccccc2)CC1
7. Cc1[nH]n(C(=O)c2ccncc2)c(=O)c1N=Nc1ccc(F)c(Cl)c1
8. CCN(CC)CCCC(C)Nc1cc(-c2cccc(OC(F)(F)F)c2)nc2ccc(N3CCCC3)cc12 (stereo not given)

93.1% (inactive)
92.7% (inactive)
90.5% (inactive)
12.3% (inactive)
-26.4% (active)
103% (inactive)
109% (inactive)
-4.02% (active)

Batch of 5 molecules: report growth for each.
1. COc1ccc(Cn2nc3c(c2-c2cc(OC)c(OC)c(OC)c2)-c2oncc2CC3)cc1
2. O=c1[nH]c2c(s1)CCCC2CN1CCCCC1 (stereo not given)
3. O=S(=O)(NCCCNc1nccc(-c2c(-c3cccc(O)c3)nc3occn23)n1)c1ccc(Br)cc1
4. O=C(c1ccccc1)N1N=C(c2ccc(-n3ccc(C(F)(F)F)n3)cc2)CC1c1ccc[nH]1 (stereo not given)
5. COc1ccc(NS(=O)(=O)c2ccc(C)cc2)c([N+](=O)[O-])c1

107% (inactive)
106% (inactive)
97.1% (inactive)
100% (inactive)
106% (inactive)

# return growth for each item in the list
1. CN1CCN(C(=O)OCc2nc3c(N4CCOCC4)nc(-c4ccccc4)nc3n2C)CC1
2. O=CNc1cc(Cl)cc(Cl)c1

1: -46.9% (active); 2: 104% (inactive)

// each listed molecule needs a value for growth
1. COc1ccc(C(=O)c2cc(C)c(OC)c(C)c2)c(OC)c1N(C(=O)C(Cl)Cl)C(=O)C(Cl)Cl
2. COc1cc(CNC(=O)CCCCC[P+](c2ccccc2)(c2ccccc2)c2ccccc2)c(OC)c2c1OCO2
3. C=C1C(=O)O[C@H]2[C@H]1CC/C(CNC(=O)/C=C/c1ccccc1F)=C\CC[C@@]1(C)O[C@@H]21

1. 2% (active)
2. 78.6% (inactive)
3. 56.2% (inactive)

---

Tested on: NCI-H226 lung
EXPERIMENT_DESCRIPTION: NCI-60 one-dose screen, 48 h (100 = growth as untreated, 0 = no growth, -100 = all killed)
APPLIED_CONDITIONS: 10 µM unless noted
About 83,000 compounds went through this panel and 20% of them were active in at least one assay; those are over-represented in the sample as a whole.
For each entry below, report its growth value.
Numbers only, in %.

// below: answered compounds
CN1CCN(CCCOc2ccc3ncnc(Nc4ccc(Oc5cccc(C(F)(F)F)c5)c(Cl)c4)c3c2)CC1	85.6
CCNC(=O)c1[nH]cc(-c2ccc(OC)cc2)c1-c1cc(OC)c(OC)c(OC)c1	83
COc1ccccc1Nc1cc(O)c2c(=O)cc(-c3ccccc3)oc2c1	76.8
O=C1Nc2cc(-c3ccncc3)ccc2/C1=C/c1ccc[nH]1	78.5

Consider the additional compound presented here.
Returns the measured growth for the input compound. Input: COc1ccc2c(/C=C3/C(=O)NC(=S)NC3C)cc(=O)oc2c1 (stereo not given)
96.7

---

System: KM12 colon
EXPERIMENT_DESCRIPTION: NCI-60 one-dose screen, 48 h
APPLIED_CONDITIONS: 10 µM unless noted
About 83,000 compounds went through this panel and 20% of them were active in at least one assay; those are over-represented in the sample as a whole. Activity calls are given as the source filed them. The calls were made as follows: active = growth percent below 10; inactive = the rest.
A correct response names exactly one class from active, inactive

Solved entries (count: 6):
O=C(Nc1sc2c(c1C(=O)O)CCCC2)c1cccc(C(F)(F)F)c1	inactive
C[C@]12CCc3nc(Nc4cccc(O)c4)sc3C1=CC[C@@H]1[C@@H]2CC[C@]2(C)/C(=N\NC(N)=S)CC[C@@H]12	inactive
O=C(O)CCCCCCCCCCCCCCC(=O)O	inactive
O=S(=O)(c1cccc(NC2=Nc3cccc4cccc2c34)c1)N1CCCC1	inactive
CCCCCCOc1ccc(/C=N/Nc2cc(C)nc3ccc(Br)cc23)cc1	active
C=C1C(=O)O[C@H]2[C@H]1CC/C(COC(=O)NCCc1c[nH]c3ccc(Cl)cc13)=C\CC[C@@]1(C)O[C@@H]21	inactive

Short answer needed: outcome of this test for `COc1ccc(C(=O)/C=C/c2cn(Cc3ccc(Cl)cc3)c3ccccc23)cc1` ?
inactive

Please indicate how the test categorized `COc1ccc(C(=O)c2cc(C)c(OC)c(C)c2)c(OC)c1N(C(=O)C(Cl)Cl)C(=O)C(Cl)Cl` .
active

Field: outcome | Entry: `O=C(Nc1ccc(Cl)cc1)Nc1ccc(Cl)c(Cl)c1`
active

Give the logged outcome of this assay for the following compound: `[O-][n+]1ccccc1CCN(O)CCc1cccc[n+]1[O-]`
inactive

Hello, I am checking results. What call was entered for `COc1cc2c(cc1[N+](=O)[O-])-c1ccc([N+](=O)[O-])cc1/C2=N/NC(N)=S` ?
inactive

Hi team, can someone confirm the assay call for `COc1cccc(NC(=O)c2cccc(-c3cc(=O)c4c(OC)c(OC)c(OC)cc4o3)c2)c1` ?
inactive

For this compound, state the assay outcome: `N#Cc1c(NC(=O)c2cccc(Br)c2)sc2c1CCCC2`
inactive

Write down the call the test reported for this compound. Item: O=C(Nc1ccc(Nc2ncccn2)cc1)NC1C=c2ccccc2=CC1 (stereo not given)
inactive

Outcome? `COc1ccc(-c2c(-c3ccccc3)noc2N)cc1OC`
inactive

Assay outcome for `c1ccc(CCSc2ncnc3nc[nH]c23)cc1` : what was it?
inactive

GET /call?item= `Nc1c(C(=O)Nc2cccc3ccncc23)sc2nc3c(cc12)C(=O)CCC3` returns the recorded outcome of this test.
inactive

Any idea what this test logged for `Clc1nc(Cl)c2ncn(CC3(Cn4cnc5c(Cl)nc(Cl)nc54)COC3)c2n1` ?
active

Kindly provide the recorded test outcome for the following compound: `Cc1nn(-c2ccccc2)c(N2CCOCC2)c1/C=N/N=c1\sc2ccccc2n1C`
inactive

Write down the call the test reported for this compound. Item: `COc1ccc(C(=O)/C=C/c2c(OC)cc(OC)cc2OC)c(OC)c1`
inactive

Recorded test outcome, item `COc1ccc(C(=O)c2cc3c(N)c(C(=O)Nc4ccc(Br)cc4)sc3nc2C)cc1`
inactive

Could you please tell me the result logged for `CC(=O)O[C@]1(C(C)=O)CC[C@H]2[C@@H]3C=C(Cl)C4=CC(=O)CC[C@]4(C)[C@H]3CC[C@@]21C` in this assay?
inactive

Assay result, entry `COc1ccc(/C=C/c2n[nH]c3ccc(N4CCOC4=O)cc23)cc1` — outcome?
active

Status in this test for `COc1ccc2c(c1)c(CC(=O)NCCOCCOCC(=O)Nc1ccc(OC)c(C(N)=O)c1O)c(C)n2C(=O)c1ccc(Cl)cc1` ?
inactive

What did this assay record as the result for `NC(=O)c1ccc[n+](CC(=O)N2CCN(c3cc4c(cc3F)c(=O)c(C(=O)O)cn4C3CC3)CC2)c1` ?
inactive

Which outcome did this test record for the compound `CCCCCOc1ccc(/C=N/Nc2cc(C)nc3ccc(Br)cc23)cc1` ?
active

I would be grateful if you could indicate the recorded call for `NC(=O)C1(N2CCCCC2)CCN(CCCC(=O)c2ccc(F)cc2)CC1` .
inactive

Test call, this compound: `CC(C)CN(C(=O)c1ccc(Cl)cc1)c1c(N)n(CC(C)C)c(=O)[nH]c1=O`
inactive

What did the test return for `CCN(CC)CCOC(COc1cc(C)cc(C)c1)COc1cc(C)cc(C)c1` ?
inactive

Can you look up the reported call for `Cn1c(=O)c2[nH]c(CCCc3nc4c([nH]3)c(=O)n(C)c(=O)n4C)nc2n(C)c1=O` for me?
inactive

Test call, this compound: `O=C(CCN1CCCC1)Nc1ccc2c(Nc3ccccc3)c3ccccc3nc2c1`
inactive

Which outcome was assigned to `COc1ccc(-c2nc3sccn3c2/C=C/C(=O)c2cc(OC)c(OC)c(OC)c2)cc1` in this test?
inactive

Any idea what this test logged for `O=C1NC(=S)NC(=O)C1=Cc1cn(Cc2ccccn2)c2ccccc12` ?
inactive

Could you check what this test reported for `Cc1cc(C(=O)Nc2ncnc3nc[nH]c23)no1` ?
inactive
